Test system: Streptococcus pneumoniae
assayExplanation: Antimicrobial activity against Streptococcus pneumoniae R6 transformants with gyrA S81Y mutation
Format: functional
Reported MIC values for a set of compounds
Give just the numeric value; mg/L need not be written.

Consider the compound shown here: COc1c(N2CCNC(C)C2)c(F)cc2c(=O)c(C(=O)O)cn(C3CC3)c12 (stereo not given) What is its recorded MIC?
0.25

For `O=C(O)c1cn(C2CC2)c2cc(N3CCNCC3)c(F)cc2c1=O` then?
2

For CO/N=C1\CN(c2nc3c(cc2F)c(=O)c(C(=O)O)cn3C2CC2)CC1CN (stereo not given) then?
0.12

For `C[C@H]1COc2c(N3CCN(C)CC3)c(F)cc3c(=O)c(C(=O)O)cn1c23.C[C@H]1COc2c(N3CCN(C)CC3)c(F)cc3c(=O)c(C(=O)O)cn1c23.O` then?
3

* * *

System: Streptococcus pneumoniae
assayExplanation: Antimicrobial activity against Streptococcus pneumoniae R6 transformants with parE D435N and gyrA E85K mutation
Type: functional
recordedMetric: MIC (µg/mL)
Give just the numeric value; µg/mL need not be written.

{"molecule": "COc1c(N2CCNC(C)C2)c(F)cc2c(=O)c(C(=O)O)cn(C3CC3)c12 (centres undefined)", "MIC / µg/mL": 0.25}

Consider the molecule shown here: `COc1c(N2C[C@@H]3CCCN[C@@H]3C2)c(F)cc2c(=O)c(C(=O)O)cn(C3CC3)c12` What is its recorded MIC?
0.5

* * *

Test system: Streptococcus pneumoniae
assayExplanation: Antimicrobial activity against Streptococcus pneumoniae R6 transformants with parE D435N and gyrA S81Y mutation
Type: functional
Reported MIC values for a set of compounds
Give just the numeric value; µg/mL need not be written.

Known results for compounds:
{"compound": "O=C(O)c1cn(C2CC2)c2cc(N3CCNCC3)c(F)cc2c1=O", "testedOn": "Streptococcus pneumoniae", "unitAbbreviation": "µg/mL", "MIC": 64}
{"compound": "CO/N=C1\\CN(c2nc3c(cc2F)c(=O)c(C(=O)O)cn3C2CC2)CC1CN (stereo not given)", "testedOn": "Streptococcus pneumoniae", "unitAbbreviation": "µg/mL", "MIC": 0.25}

Now consider the entry below.
Consider the compound shown here: `COc1c(N2C[C@@H]3CCCN[C@@H]3C2)c(F)cc2c(=O)c(C(=O)O)cn(C3CC3)c12` What is its recorded MIC?
4

* * *

Reported MIC values for a set of compounds
System: Streptococcus pneumoniae
assayExplanation: Antimicrobial activity against Streptococcus pneumoniae R6 transformants with parC S79F and gyrA S81Y mutation
Assay type: functional
Give just the numeric value; µg/mL need not be written.

Known results for compounds:
{"compound": "CO/N=C1\\CN(c2nc3c(cc2F)c(=O)c(C(=O)O)cn3C2CC2)CC1CN (stereo not given)", "recordedMetric": "MIC", "reported": 0.5}
{"compound": "COc1c(N2C[C@@H]3CCCN[C@@H]3C2)c(F)cc2c(=O)c(C(=O)O)cn(C3CC3)c12", "recordedMetric": "MIC", "reported": 4}

Now consider the entry below.
Consider the compound shown here: `O=C(O)c1cn(C2CC2)c2cc(N3CCNCC3)c(F)cc2c1=O` What is its recorded MIC?
64

* * *

Reported MIC values for a set of compounds
Test system: Streptococcus pneumoniae
assayExplanation: Antimicrobial activity against Streptococcus pneumoniae R6 transformants with parC D83Y and gyrA E85K mutation
Format: functional
Give just the numeric value; µg/mL need not be written.

Known results for compounds:
{"compound": "COc1c(N2CCNC(C)C2)c(F)cc2c(=O)c(C(=O)O)cn(C3CC3)c12 (stereo not given) [GATIFLOXACIN]", "MIC (µg/mL)": 2}
{"compound": "COc1c(N2C[C@@H]3CCCN[C@@H]3C2)c(F)cc2c(=O)c(C(=O)O)cn(C3CC3)c12 [MOXIFLOXACIN]", "MIC (µg/mL)": 4}
{"compound": "O=C(O)c1cn(C2CC2)c2cc(N3CCNCC3)c(F)cc2c1=O [CIPROFLOXACIN]", "MIC (µg/mL)": 64}

Form field: MIC recorded for CO/N=C1\CN(c2nc3c(cc2F)c(=O)c(C(=O)O)cn3C2CC2)CC1CN (stereo not given) [GEMIFLOXACIN] with Streptococcus pneumoniae (enter value)
0.5

* * *

Reported MIC values for a set of compounds
Test system: Streptococcus pneumoniae
assayExplanation: Antimicrobial activity against Streptococcus pneumoniae R6 transformants with parC D83Y and gyrA S81F mutation
Assay type: functional
Give just the numeric value; µg/mL need not be written.

{"compound": "COc1c(N2CCNC(C)C2)c(F)cc2c(=O)c(C(=O)O)cn(C3CC3)c12 (stereo not given)", "MIC, µg/mL": 4}

Consider the compound shown here: `COc1c(N2C[C@@H]3CCCN[C@@H]3C2)c(F)cc2c(=O)c(C(=O)O)cn(C3CC3)c12` What is its recorded MIC?
4

For `O=C(O)c1cn(C2CC2)c2cc(N3CCNCC3)c(F)cc2c1=O` then?
32

For CO/N=C1\CN(c2nc3c(cc2F)c(=O)c(C(=O)O)cn3C2CC2)CC1CN (stereo not given) then?
0.12
